Target: UniProt:Q9NWZ3
Experiment: Western blot assay for assessing degradation of IRAK4 in MCF7 cells
Assay type: cell-based
Conditions: Table 1, 24 hours, read-out: IRAK4 by western DC50
VALUE_KIND: DC50
State the result as a value with its unit after it.

O=C1CCC(N2C(=O)c3ccc(OCCOCCOCCOCCN4CCN(Cc5ccc6c(c5)nc(NC(=O)c5cccc(C(F)(F)F)c5)n6[C@H]5CC[C@@H](CO)CC5)CC4)cc3C2=O)C(=O)N1 (stereo partly shown) : 25 nM

For every item below, please supply its DC50.
1. O=C1CCC(N2C(=O)c3ccc(OCCOCCN4CCN(Cc5ccc6c(c5)nc(NC(=O)c5cccc(C(F)(F)F)c5)n6[C@H]5CC[C@@H](CO)CC5)CC4)cc3C2=O)C(=O)N1 (stereo partly shown)
2. O=C1CCC(N2C(=O)c3ccc(OCCOCCOCCOCCOCCN4CCN(Cc5ccc6c(c5)nc(NC(=O)c5cccc(C(F)(F)F)c5)n6[C@H]5CC[C@@H](CO)CC5)CC4)cc3C2=O)C(=O)N1 (stereo partly shown)
3. O=C1CCC(N2C(=O)c3ccc(OCCOCCOCCN4CCN(Cc5ccc6c(c5)nc(NC(=O)c5cccc(C(F)(F)F)c5)n6[C@H]5CC[C@@H](CO)CC5)CC4)cc3C2=O)C(=O)N1 (stereo partly shown)

**Result**
10 nM
40 nM
23 nM

* * *

Biological target: UniProt Q9NWZ3
Assay: Western blot assay for assessing degradation of IRAK4 in MCF7 cells
Format: cell-based
Details: Table 5, IRAK4 degradation, 24 hour incubation, read-out: IRAK4 Dmax (%)
Please provide measured Dmax for the entries that follow.

Below, each entry is followed by its recorded Dmax result.
O=C1CCC(N2C(=O)c3ccc(OCCOCCOCCOCCOCCN4CCN(Cc5ccc6c(c5)nc(NC(=O)c5cccc(C(F)(F)F)c5)n6[C@H]5CC[C@@H](CO)CC5)CC4)cc3C2=O)C(=O)N1 (stereo partly drawn) [compound 5] : 50 to 70%
O=C1CCC(N2C(=O)c3cccc(NCCOCCOCCN4CCN(Cc5ccc6c(c5)nc(NC(=O)c5cccc(C(F)(F)F)c5)n6C5CCC(CO)CC5)CC4)c3C2=O)C(=O)N1 (stereo not drawn) [compound 66] : 50 to 70%

For the next question, use this compound.
**Query** For O=C1CCC(N2C(=O)c3ccc(OCCOCCOCCOCCN4CCN(Cc5ccc6c(c5)nc(NC(=O)c5cccc(C(F)(F)F)c5)n6[C@H]5CC[C@@H](CO)CC5)CC4)cc3C2=O)C(=O)N1 (stereo partly drawn) [compound 4] , what is its reported Dmax?
**Result** > 70%

* * *

Molecular target: IRAK4 (Homo sapiens (Human))
Sequence (Q9NWZ3 whole entry): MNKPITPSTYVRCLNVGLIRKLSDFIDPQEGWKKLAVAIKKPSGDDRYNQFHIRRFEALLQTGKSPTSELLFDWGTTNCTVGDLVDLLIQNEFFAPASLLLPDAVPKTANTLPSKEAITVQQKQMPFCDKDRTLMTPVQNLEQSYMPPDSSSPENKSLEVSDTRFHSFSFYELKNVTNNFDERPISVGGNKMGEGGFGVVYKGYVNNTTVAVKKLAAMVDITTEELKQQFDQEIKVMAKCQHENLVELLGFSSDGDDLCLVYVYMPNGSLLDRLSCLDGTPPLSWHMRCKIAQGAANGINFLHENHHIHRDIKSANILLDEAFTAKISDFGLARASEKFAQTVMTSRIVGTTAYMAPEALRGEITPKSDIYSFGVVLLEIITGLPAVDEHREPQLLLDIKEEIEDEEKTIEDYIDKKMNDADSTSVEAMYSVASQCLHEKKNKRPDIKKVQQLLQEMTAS
Assay: Western blot assay for assessing degradation of IRAK4 in MCF7 cells
Assay type: cell-based
Conditions: Table 1, 24 hours
VALUE_KIND: IRAK4 by western % degraded (%)
Answers are plain numbers, in %.

O=C1CCC(N2C(=O)c3ccc(OCCOCCOCCN4CCN(Cc5ccc6c(c5)nc(NC(=O)c5cccc(C(F)(F)F)c5)n6[C@H]5CC[C@@H](CO)CC5)CC4)cc3C2=O)C(=O)N1 (stereo partly shown) [compound 3] : 80

Record IRAK4 by western % degraded per entry; entries follow.
1. O=C1CCC(N2C(=O)c3ccc(OCCOCCOCCOCCN4CCN(Cc5ccc6c(c5)nc(NC(=O)c5cccc(C(F)(F)F)c5)n6[C@H]5CC[C@@H](CO)CC5)CC4)cc3C2=O)C(=O)N1 (stereo partly shown) [compound 4]
2. O=C1CCC(N2C(=O)c3ccc(OCCOCCOCCOCCOCCN4CCN(Cc5ccc6c(c5)nc(NC(=O)c5cccc(C(F)(F)F)c5)n6[C@H]5CC[C@@H](CO)CC5)CC4)cc3C2=O)C(=O)N1 (stereo partly shown) [compound 5]

**Result**
87
76

**Query** Look up IRAK4 by western % degraded for this compound: O=C1CCC(N2C(=O)c3ccc(OCCOCCN4CCN(Cc5ccc6c(c5)nc(NC(=O)c5cccc(C(F)(F)F)c5)n6C5CCC(CO)CC5)CC4)cc3C2=O)C(=O)N1 (stereo not shown) [compound 2]
**Result** 71

FYI, the data here is from patent US11065231B2.
